Molecular target: AXL (Homo sapiens, UniProt P30530)
Sequence (P30530 26-894): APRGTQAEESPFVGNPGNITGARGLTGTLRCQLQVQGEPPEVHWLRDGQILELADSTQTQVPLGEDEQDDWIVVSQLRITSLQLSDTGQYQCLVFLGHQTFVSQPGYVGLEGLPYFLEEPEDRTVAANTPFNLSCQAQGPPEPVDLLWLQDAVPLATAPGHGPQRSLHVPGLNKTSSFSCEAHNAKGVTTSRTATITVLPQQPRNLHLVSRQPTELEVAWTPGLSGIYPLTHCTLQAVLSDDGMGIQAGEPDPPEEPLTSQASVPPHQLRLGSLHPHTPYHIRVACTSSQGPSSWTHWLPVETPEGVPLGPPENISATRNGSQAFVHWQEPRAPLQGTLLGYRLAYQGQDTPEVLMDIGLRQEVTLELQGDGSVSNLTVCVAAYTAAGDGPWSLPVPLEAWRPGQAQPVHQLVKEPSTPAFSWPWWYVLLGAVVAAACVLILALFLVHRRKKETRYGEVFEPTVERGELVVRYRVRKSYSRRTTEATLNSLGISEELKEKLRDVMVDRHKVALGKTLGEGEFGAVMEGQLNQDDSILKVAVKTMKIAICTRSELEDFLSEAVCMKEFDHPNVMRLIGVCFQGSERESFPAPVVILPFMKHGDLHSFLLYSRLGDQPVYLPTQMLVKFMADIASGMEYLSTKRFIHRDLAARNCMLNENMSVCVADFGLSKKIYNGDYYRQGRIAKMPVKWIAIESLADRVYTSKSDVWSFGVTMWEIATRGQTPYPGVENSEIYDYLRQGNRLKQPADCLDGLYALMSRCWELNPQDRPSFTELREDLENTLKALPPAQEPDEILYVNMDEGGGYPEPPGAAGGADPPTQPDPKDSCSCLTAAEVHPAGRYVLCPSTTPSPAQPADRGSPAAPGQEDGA
Assay: Microfluidic capillary electrophoresis (MCE) kinase activity assay, Axl
Type: biochemical
Settings: Table 2; MCE assay, ATP at Km
pIC50: −log10 of the molar value.
Measured endpoint: pIC50

Some solved cases for reference:
CN1CCN(Cc2ccc(-c3cn([C@H]4CC[C@H](O)CC4)c4nc(Nc5cncnc5)ncc34)cc2)CC1 | > 8.00
O[C@H]1CC[C@H](n2cc(-c3ccc(CN4CCC(F)(F)CC4)cc3)c3cnc(Nc4cc(C(F)(F)F)cc(C(F)(F)F)c4)nc32)CC1 | 6.00 to 7.00

With those in mind, consider the next compound.
Qu. I'd like to know its pIC50. The compound in question is CN1CCCN(Cc2ccc(-c3cn([C@H]4CC[C@H](O)CC4)c4nc(Nc5cc(F)cc(Cl)c5)ncc34)cc2)CC1
Ans. 7.00 to 8.00

---

target: MERTK (Homo sapiens, UniProt Q12866); experiment: Microfluidic capillary electrophoresis (MCE) kinase activity assay, Mer; assay type: biochemical; details: Table 11
Sequence (Q12866 21-999): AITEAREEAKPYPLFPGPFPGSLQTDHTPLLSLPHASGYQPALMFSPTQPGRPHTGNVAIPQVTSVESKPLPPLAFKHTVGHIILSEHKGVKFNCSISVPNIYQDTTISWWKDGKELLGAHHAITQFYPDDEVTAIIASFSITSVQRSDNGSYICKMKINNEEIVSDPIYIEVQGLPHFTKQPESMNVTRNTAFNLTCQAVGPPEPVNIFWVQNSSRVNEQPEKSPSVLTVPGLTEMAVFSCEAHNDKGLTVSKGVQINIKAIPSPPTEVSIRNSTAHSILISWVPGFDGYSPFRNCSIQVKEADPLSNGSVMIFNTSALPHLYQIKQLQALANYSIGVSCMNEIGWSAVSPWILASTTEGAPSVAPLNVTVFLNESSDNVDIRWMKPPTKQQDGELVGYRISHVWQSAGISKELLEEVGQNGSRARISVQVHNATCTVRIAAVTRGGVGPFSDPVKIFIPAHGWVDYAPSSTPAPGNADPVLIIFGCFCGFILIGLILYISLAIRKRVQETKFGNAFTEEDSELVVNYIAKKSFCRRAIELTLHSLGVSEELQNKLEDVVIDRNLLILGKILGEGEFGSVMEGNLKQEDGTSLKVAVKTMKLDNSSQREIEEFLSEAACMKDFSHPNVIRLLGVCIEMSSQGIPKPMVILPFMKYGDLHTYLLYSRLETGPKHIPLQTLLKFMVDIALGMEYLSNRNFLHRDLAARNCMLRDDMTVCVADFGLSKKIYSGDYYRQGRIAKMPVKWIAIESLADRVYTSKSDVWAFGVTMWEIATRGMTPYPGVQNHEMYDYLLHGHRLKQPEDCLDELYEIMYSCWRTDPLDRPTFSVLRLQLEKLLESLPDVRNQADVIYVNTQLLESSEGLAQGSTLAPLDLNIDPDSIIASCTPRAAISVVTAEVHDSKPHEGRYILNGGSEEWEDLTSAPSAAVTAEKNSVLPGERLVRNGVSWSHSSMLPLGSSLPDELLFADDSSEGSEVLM
pIC50: −log10 of the molar value.
Could you please report measured pIC50 for the items listed next?

CN1CCN(Cc2ccc(-c3cc(C4CCC(=O)CC4)n4nc(Nc5cc(F)cc(Cl)c5)ncc34)cc2)CC1 [Compound 171] | 7.00 to 8.00

With those in mind, consider the next molecule.
Qu. I'd like to know its pIC50. The molecule in question is CN1CCN(Cc2ccc(-c3cc(C4CCC5(CC4)OCCO5)n4nc(Nc5cc(F)cc(Cl)c5)ncc34)cc2)CC1 [Compound 170]
Ans. 7.00 to 8.00

---

Target: TYRO3 (Homo sapiens)
Sequence (Q06418 41-890): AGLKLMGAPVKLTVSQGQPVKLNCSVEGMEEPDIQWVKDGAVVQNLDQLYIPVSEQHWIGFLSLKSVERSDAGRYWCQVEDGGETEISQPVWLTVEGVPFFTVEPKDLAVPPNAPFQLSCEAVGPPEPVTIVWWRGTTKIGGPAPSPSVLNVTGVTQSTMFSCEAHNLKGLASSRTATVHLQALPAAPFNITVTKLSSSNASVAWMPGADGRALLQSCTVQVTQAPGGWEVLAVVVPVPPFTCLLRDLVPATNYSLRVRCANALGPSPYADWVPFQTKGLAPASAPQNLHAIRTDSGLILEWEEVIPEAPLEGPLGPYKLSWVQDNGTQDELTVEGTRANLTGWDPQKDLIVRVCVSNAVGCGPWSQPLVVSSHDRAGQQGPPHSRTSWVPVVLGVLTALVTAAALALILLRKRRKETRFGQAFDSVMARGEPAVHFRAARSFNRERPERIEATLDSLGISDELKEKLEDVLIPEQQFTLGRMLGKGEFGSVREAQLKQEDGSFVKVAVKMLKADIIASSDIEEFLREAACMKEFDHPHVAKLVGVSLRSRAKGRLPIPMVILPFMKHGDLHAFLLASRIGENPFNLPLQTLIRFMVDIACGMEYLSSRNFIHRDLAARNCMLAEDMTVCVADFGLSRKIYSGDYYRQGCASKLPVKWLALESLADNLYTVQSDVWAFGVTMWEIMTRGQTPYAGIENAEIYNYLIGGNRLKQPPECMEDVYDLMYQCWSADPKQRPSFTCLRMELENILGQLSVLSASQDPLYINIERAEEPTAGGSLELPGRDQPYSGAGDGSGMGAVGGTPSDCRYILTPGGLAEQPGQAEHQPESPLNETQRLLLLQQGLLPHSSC
Experiment: Microfluidic capillary electrophoresis (MCE) kinase activity assay, Tyro3
Format: biochemical
Details: Table 3; MCE assay, ATP at Km
pIC50: −log10 of the molar value.
Measured endpoint: pIC50

Qu. I'd like to know its pIC50. The compound in question is CN1CCN(Cc2ccc(-c3cn([C@H]4CC[C@@H](O)CC4)c4nc(Nc5cc(F)cc(Cl)c5)ncc34)cc2)CC1
Ans. > 8.00

---

target: AXL (Homo sapiens, UniProt P30530); test: Microfluidic capillary electrophoresis (MCE) kinase activity assay, Axl; format: biochemical; settings: Table 3; MCE assay, ATP at Km
pIC50: −log10 of the molar value.
Measured endpoint: pIC50

Qu. I'd like to know its pIC50. The molecule in question is CN1CCN(Cc2ccc(-c3cn([C@H]4CC[C@@H](O)CC4)c4nc(Nc5cc(F)cc(Cl)c5)ncc34)cc2)CC1 [Compound 39]
Ans. 7.00 to 8.00

---

Could you please report measured pIC50 for the items listed next?
Target: AXL (Homo sapiens)
Sequence (P30530 26-894): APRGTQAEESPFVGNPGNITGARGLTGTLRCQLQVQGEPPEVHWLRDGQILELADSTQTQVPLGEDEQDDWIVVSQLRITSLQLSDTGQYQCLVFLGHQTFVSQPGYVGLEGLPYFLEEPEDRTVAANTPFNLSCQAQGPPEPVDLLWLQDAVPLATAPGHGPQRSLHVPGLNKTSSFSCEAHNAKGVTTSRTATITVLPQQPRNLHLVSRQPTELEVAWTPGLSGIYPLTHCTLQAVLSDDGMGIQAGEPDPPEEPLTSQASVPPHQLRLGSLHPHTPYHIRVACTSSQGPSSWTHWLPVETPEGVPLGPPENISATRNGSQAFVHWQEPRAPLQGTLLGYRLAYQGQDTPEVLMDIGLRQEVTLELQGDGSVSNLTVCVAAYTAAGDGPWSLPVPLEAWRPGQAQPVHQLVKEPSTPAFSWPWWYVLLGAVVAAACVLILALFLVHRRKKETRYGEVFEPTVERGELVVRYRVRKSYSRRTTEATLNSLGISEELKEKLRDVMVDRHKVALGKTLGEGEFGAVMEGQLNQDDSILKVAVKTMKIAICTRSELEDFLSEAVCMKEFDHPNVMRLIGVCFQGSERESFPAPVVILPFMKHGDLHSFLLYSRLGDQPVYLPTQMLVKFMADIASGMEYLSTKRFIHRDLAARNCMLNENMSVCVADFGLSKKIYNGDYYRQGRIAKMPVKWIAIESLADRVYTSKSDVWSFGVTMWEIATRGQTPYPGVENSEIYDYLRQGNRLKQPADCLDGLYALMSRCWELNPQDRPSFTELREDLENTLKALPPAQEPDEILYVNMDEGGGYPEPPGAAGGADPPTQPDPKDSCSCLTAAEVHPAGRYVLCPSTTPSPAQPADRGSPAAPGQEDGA
Test: Microfluidic capillary electrophoresis (MCE) kinase activity assay, Axl
Assay type: biochemical
Conditions: Table 2; MCE assay, ATP at Km
pIC50: −log10 of the molar value.

O[C@H]1CC[C@H](n2cc(-c3ccc(CN4CCNCC4)cc3)c3cnc(Nc4cc(F)cc(Cl)c4)nc32)CC1 | 7.00 to 8.00
O[C@H]1CC[C@H](n2cc(-c3ccc(CN4CCC(F)(F)CC4)cc3)c3cnc(Nc4cc(F)cc(Cl)c4)nc32)CC1 | 6.00 to 7.00
CC(C)(C)OC(=O)N1CCN(Cc2ccc(-c3cn([C@H]4CC[C@H](O)CC4)c4nc(Nc5cc(F)cc(Cl)c5)ncc34)cc2)CC1 | 6.00 to 7.00
CN1CCN(Cc2ccc(-c3cn([C@H]4CC[C@H](O)CC4)c4nc(Nc5cccnc5)ncc34)cc2)CC1 | > 8.00
O[C@H]1CC[C@H](n2cc(-c3ccc(CN4CCSCC4)cc3)c3cnc(Nc4cc(F)cc(Cl)c4)nc32)CC1 | 6.00 to 7.00

Quick one: give me pIC50 for each item below, same order please.
1. CN1CCC(Oc2ccc(-c3cn([C@H]4CC[C@H](O)CC4)c4nc(Nc5cc(F)cc(Cl)c5)ncc34)cc2)CC1
2. CN1CCN(Cc2ccc(-c3cn([C@H]4CC[C@H](O)CC4)c4nc(Nc5cc(Cl)c(F)c(Cl)c5)ncc34)cc2)CC1
3. O[C@H]1CC[C@H](n2cc(-c3ccc(CN4CCNCC4)cc3)c3cnc(Nc4cc(C(F)(F)F)cc(C(F)(F)F)c4)nc32)CC1
4. O[C@H]1CC[C@H](n2cc(-c3ccc(CNCCN4CCOCC4)cc3)c3cnc(Nc4cc(C(F)(F)F)cc(C(F)(F)F)c4)nc32)CC1
5. CC(C)(C)OC(=O)N1CCN(Cc2ccc(-c3cn([C@H]4CC[C@H](O)CC4)c4nc(Nc5cc(C(F)(F)F)cc(C(F)(F)F)c5)ncc34)cc2)CC1
6. CN(C)C1CCN(Cc2ccc(-c3cn([C@H]4CC[C@H](O)CC4)c4nc(Nc5cc(F)cc(Cl)c5)ncc34)cc2)CC1
7. CN1CCN(Cc2ccc(-c3cn([C@H]4CC[C@H](O)CC4)c4nc(Nc5cc(F)cc(Cl)c5)ncc34)cc2)CC1

Ans.
["7.00 to 8.00", "7.00 to 8.00", "6.00 to 7.00", "6.00 to 7.00", "4.52 to 6.00", "7.00 to 8.00", "7.00 to 8.00"]

Quick one: give me pIC50 for each item below, same order please.
1. CCN1CCN(Cc2ccc(-c3cn([C@H]4CC[C@H](O)CC4)c4nc(Nc5cc(F)cc(Cl)c5)ncc34)cc2)CC1
2. O[C@H]1CC[C@H](n2cc(-c3ccc(CN4CCN(C5CCCC5)CC4)cc3)c3cnc(Nc4cc(F)cc(Cl)c4)nc32)CC1

Ans.
1. 7.00 to 8.00
2. 7.00 to 8.00
